Sourced from ChEMBL document CHEMBL1126970

organism: Cavia porcellus; experiment: Selectivity ratio between CCK-B and CCK-A receptor; set-up: reference not given here
Please provide measured Selectivity ratio for the entries that follow.

- compound: "CN1C(=O)C(NC(=O)Nc2ccc(N)nc2)N=C(c2ccccc2)c2ccccc21 (stereo not given)"
  measurement-kind: "Selectivity ratio"
  test-result: 6
- compound: "CN1C(=O)[C@H](NC(=O)Nc2cccc(N)c2)N=C(c2ccccc2)c2ccccc21"
  measurement-kind: "Selectivity ratio"
  test-result: 131
- compound: "Cc1cccc(NC(=O)NC2N=C(c3ccccc3)c3ccccc3N(CC(=O)N3CC[N+](C)(C)CC3)C2=O)c1 (racemic)"
  measurement-kind: "Selectivity ratio"
  test-result: 107
- compound: "CN1C(=O)[C@H](NC(=O)Nc2cccc(O)c2)N=C(c2ccccc2)c2ccccc21"
  measurement-kind: "Selectivity ratio"
  test-result: 1

Problem: I have this compound here, CN1C(=O)[C@@H](NC(=O)Nc2ccc(Cl)cc2)N=C(c2ccccc2)c2ccccc21 , and I need its recorded Selectivity ratio.
Solution: 0.1
